Tested on: 327498-153-R-J2-PDC complex spheroid growth, % test/control;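 note: spheroids exposed to compound for 7 days after 3 days of growth; 100% = DMSO vehicle control wells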
method: Anticancer human tumor 327498-153-R-J2-PDC patient-derived uterine carcinosarcoma cell line growth inhibition [Asc]
settings: second compound 1 µM; first compound 0.0316 µM; active compounds read low
viability, T/C values, listed per item
assay-metric: viability, T/C (%)

1. NC1CCC(NC2CC2c2ccccc2)CC1 (configuration not stated) + CNC(C)C(=O)NC1CN(S(=O)(=O)c2cccc(S(=O)(=O)N3CCC4CCC(C(=O)NC(c5ccccc5)c5ccccc5)N4C(=O)C(NC(=O)C(C)NC)C3)c2)CCC2CCC(C(=O)NC(c3ccccc3)c3ccccc3)N2C1=O    94.7
2. O=C(c1cc(Cc2n[nH]c(=O)c3ccccc23)ccc1F)N1CCN(C(=O)C2CC2)CC1 + CNC(C)C(=O)NC1CN(S(=O)(=O)c2cccc(S(=O)(=O)N3CCC4CCC(C(=O)NC(c5ccccc5)c5ccccc5)N4C(=O)C(NC(=O)C(C)NC)C3)c2)CCC2CCC(C(=O)NC(c3ccccc3)c3ccccc3)N2C1=O    96.8
3. Cn1ncnc1[C@H]1c2n[nH]c(=O)c3cc(F)cc(c23)N[C@@H]1c1ccc(F)cc1 + CNC(C)C(=O)NC1CN(S(=O)(=O)c2cccc(S(=O)(=O)N3CCC4CCC(C(=O)NC(c5ccccc5)c5ccccc5)N4C(=O)C(NC(=O)C(C)NC)C3)c2)CCC2CCC(C(=O)NC(c3ccccc3)c3ccccc3)N2C1=O    25.3
4. C=C(F)C(=O)N1CCN(c2nc(OCC3CCCN3C)nc3c2CCN(c2cccc4cccc(Cl)c24)C3)CC1CC#N (configuration not stated) + CNC(C)C(=O)NC1CN(S(=O)(=O)c2cccc(S(=O)(=O)N3CCC4CCC(C(=O)NC(c5ccccc5)c5ccccc5)N4C(=O)C(NC(=O)C(C)NC)C3)c2)CCC2CCC(C(=O)NC(c3ccccc3)c3ccccc3)N2C1=O    86
5. C=CC(=O)N1CCN(c2nc(=O)n(-c3c(C)ccnc3C(C)C)c3nc(-c4c(O)cccc4F)c(F)cc23)C(C)C1 (configuration not stated) + Cc1c(S(C)(=O)=O)c(-c2cc(F)cc(N3CCN(c4ccc(NS(=O)(=O)c5ccc(NC(CCN6CCC(C(=O)OCCCP(=O)(O)O)CC6)CSc6ccccc6)c(S(=O)(=O)C(F)(F)F)c5)cc4)CC3)c2)c(-c2ccc(Cl)cc2)n1C(C)C    83.2
6. C#Cc1c(F)ccc2cc(O)cc(-c3ncc4c(N5CC6CCC(C5)N6)nc(OCC56CCCN5CC(F)C6)nc4c3F)c12 (configuration not stated) + Cc1c(S(C)(=O)=O)c(-c2cc(F)cc(N3CCN(c4ccc(NS(=O)(=O)c5ccc(NC(CCN6CCC(C(=O)OCCCP(=O)(O)O)CC6)CSc6ccccc6)c(S(=O)(=O)C(F)(F)F)c5)cc4)CC3)c2)c(-c2ccc(Cl)cc2)n1C(C)C    90.6
7. COc1c(OCCCN2CCOCC2)ccc2c3n(c(=NC(=O)c4cnc(N)nc4)nc12)CCN3 + Cc1c(S(C)(=O)=O)c(-c2cc(F)cc(N3CCN(c4ccc(NS(=O)(=O)c5ccc(NC(CCN6CCC(C(=O)OCCCP(=O)(O)O)CC6)CSc6ccccc6)c(S(=O)(=O)C(F)(F)F)c5)cc4)CC3)c2)c(-c2ccc(Cl)cc2)n1C(C)C    63.9
